Values compiled from BindingDB's records for patent US12030880.

experimental target: Bromodomain-containing protein 4 [44-168] (Human)
Construct: 44-168
test description: In Vitro BRD4 (BD1) Enzymatic Activity Assay
Method: In the present application, IC50 values of the compounds in inhibiting BRD4 (BD1) enzyme binding reaction were determined by homogeneous time resolved fluorescence (HTRF). […] After being incubated in the incubator for another 1 hour, the fluorescence values (excited at 320 nm, emitted light at 665 nm and 620 nm being detected, and the ratio of the two being the enzyme binding signal) were read on Envision (purchased from PerkinElmer).
experimental endpoint: IC50 (nM)

P = Cn1cc(-c2cc(N=S(C)(C)=O)ccc2Oc2ccc(C#N)cc2F)c2cc[nH]c2c1=O [US12030880, Example 2]
Q = CCNC(=O)c1cc2c(-c3cc(N=S(C)(C)=O)ccc3Oc3ccc(S(C)(=O)=O)cc3)cn(C)c(=O)c2[nH]1 [US12030880, Example 1]
Of P and Q , which carries the smaller reported IC50 figure? Refer to your chosen item by its label in the answer.
P
(P: 1.4 nM, Q: 14.7 nM)
